Test system: BT-549
ASSAY_TEXT: NCI tumour cell line growth inhibition, 48 h
The source made the active and inactive calls. Rule as the data show it: active = GI50 up to about 1.1 µM and inactive = higher.
REPORTED_METRIC: GI50

Below, each entry is followed by its recorded GI50 result.
[[record]]
molecule = "Nc1ccc(S(=O)(=O)Nc2nc3ccccc3nc2N2CCCCC2)cc1"
measured_target = "BT-549"
reported_metric = "GI50"
endpoint_value = "23.8 µM (inactive)"

[[record]]
molecule = "CC(C)(C)OC(=O)C1C(=O)NC(=O)CC1C(COCc1ccccc1)OCc1ccccc1 (stereo not drawn)"
measured_target = "BT-549"
reported_metric = "GI50"
endpoint_value = "32.1 µM (inactive)"


Please turn your attention to the following entry.
# query: GI50 | item "CC(=O)OC[C@H]1On2nnnc2[C@H](OC(C)=O)[C@@H](OC(C)=O)[C@@H]1OC(C)=O" | system: BT-549
> 100 µM (inactive)

Value source: ChEMBL document CHEMBL1201862
